# SYSTEM_UNDER_TEST: T1, DVL3, Q92997
# T1 sequence (Q92997 244-331, limits assumed, looked up): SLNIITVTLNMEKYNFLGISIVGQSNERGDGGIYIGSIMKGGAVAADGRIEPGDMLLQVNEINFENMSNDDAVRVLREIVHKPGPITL
# TEST_DESCRIPTION: holdup assay
# Design: key: below the threshold = too weak to quantify, mostly under pKd 3.1 to 4
# PROTOCOL_CONDITIONS: plain residues with an end cap or a label only (N-terminal biotin on a linker: ado-ado)
ASSAY_READOUT: pKd

BINDER: SAKVRTVTSV [RASL11B, Q9BPW5]
ASSAY_READOUT: pKd
RECORDED_MEASUREMENT: below the threshold
--
BINDER: MLSKQSESAI [FLVCR1, Q9Y5Y0]
ASSAY_READOUT: pKd
RECORDED_MEASUREMENT: below the threshold
--
BINDER: GNSVLKSTQF [SLC22A12, Q96S37]
ASSAY_READOUT: pKd
RECORDED_MEASUREMENT: below the threshold
--
BINDER: GQEEQVTTRL [TRPC5, Q9UL62]
ASSAY_READOUT: pKd
RECORDED_MEASUREMENT: below the threshold
--
BINDER: AKPSRISTVV [IQSEC2, Q5JU85]
ASSAY_READOUT: pKd
RECORDED_MEASUREMENT: below the threshold
--
BINDER: CLREWCDAFL [BANF1, O75531]
ASSAY_READOUT: pKd
RECORDED_MEASUREMENT: 3.65
--
BINDER: EVEEFPETSV [TRPV3, Q8NET8]
ASSAY_READOUT: pKd
RECORDED_MEASUREMENT: 3.59
--
BINDER: LPAHHNATRL [SLC34A1, Q06495;Q06495-1]
ASSAY_READOUT: pKd
RECORDED_MEASUREMENT: below the threshold
